Below, each of the molecules is paired with its reported Mean number of SCR adults per sticky trap (±standard deviation) after 24 hours value.
test system: southern corn rootworm (SCR) adults; experiment: Sticky trap attraction in corn, estragole analogues (Example 3); type: in vivo, Diabrotica undecimpunctata howardi; details: August 4 second year; 100 mg per trap; n = 4
Marks after values point to notes of the source that are not given here.

Observe how each entry below is paired with its result.
STRUCTURE_STRING: COc1ccc(C=CC#N)cc1
TARGET_SYSTEM: southern corn rootworm (SCR) adults
OBS_VALUE: 4.0 ± 2.2^ab per sticky trap
//
STRUCTURE_STRING: COc1ccccc1C=CC=O
TARGET_SYSTEM: southern corn rootworm (SCR) adults
OBS_VALUE: 12.2 ± 9.9^b per sticky trap
//
STRUCTURE_STRING: COc1ccc(C=CC=O)cc1
TARGET_SYSTEM: southern corn rootworm (SCR) adults
OBS_VALUE: 9.0 ± 6.5^b per sticky trap
//
STRUCTURE_STRING: C=CCc1ccc(OC)cc1
TARGET_SYSTEM: southern corn rootworm (SCR) adults
OBS_VALUE: 7.2 ± 5.1^a per sticky trap
//
STRUCTURE_STRING: N#CC=Cc1ccccc1
TARGET_SYSTEM: southern corn rootworm (SCR) adults
OBS_VALUE: 59.5 ± 49.0^c per sticky trap

Query: Need Mean number of SCR adults per sticky trap (±standard deviation) after 24 hours, item C=CCc1ccccc1
Response: 12.4 ± 7.2^b per sticky trap

Query: Fill blank: measured Mean number of SCR adults per sticky trap (±standard deviation) after 24 hours of the molecule O=CC=Cc1ccccc1 is ____.
Response: 135.5 ± 29.3^d per sticky trap

###

system: northern corn rootworm (NCR); assay: Sticky trap attraction in corn, phenylethanol analogues (Example 6); assay type: in vivo, Diabrotica barberi; details: Table 20; 100 mg per trap; four replicates; 24 hour
# Mean number of NCR per trap (± standard deviation) listing for each entry below

COMPOUND: NCc1ccccc1 [benzylamine]
OBS_VALUE: 57.5 ± 29.6b* per trap
--
COMPOUND: NCCCc1ccccc1 [phenylpropylamine]
OBS_VALUE: 131.5 ± 16.5c per trap
--
COMPOUND: NCCc1ccccc1 [phenylethylamine]
OBS_VALUE: 206.7 ± 32.3d per trap
--
COMPOUND: NCCCCc1ccccc1 [phenylbutylamine]
OBS_VALUE: 12.2 ± 6.1a per trap
--
COMPOUND: COc1ccc(CCN)cc1 [4-methoxyphenylethylamine]
OBS_VALUE: 24.2 ± 15.4a per trap

Let's switch to this compound now.
Query: What measured Mean number of NCR per trap (± standard deviation) is associated with OCC=Cc1ccccc1 [XVIII, cinnamyl alcohol] on northern corn rootworm (NCR)?
Response: 127.0 ± 24.2b per trap

###

The entries below are paired with their reported Mean number of D. v. virgifera per day (±standard deviation).
tested on: D. v. virgifera; test: Sticky trap attraction in prairie habitat, Trelease Woods (Example 2); format: in vivo, Diabrotica virgifera virgifera; conditions: August 11, 1987; 100 mg per trap; n = 4
Marks after values point to notes of the source that are not given here.

Guide cases for Mean number of D. v. virgifera per day (±standard deviation), answers given:
STRUCTURE_STRING: C=CCc1ccc(OC)cc1
OBS_VALUE: 0.3 ± 0.5^a per day
//
STRUCTURE_STRING: OCC=Cc1ccccc1
OBS_VALUE: 0.0 per day
//
STRUCTURE_STRING: CC(=O)/C=C/C1=C(C)CCCC1(C)C
OBS_VALUE: 4.0 ± 0.8^b per day
//
STRUCTURE_STRING: COc1ccc(C=CC=O)cc1
OBS_VALUE: 8.5 ± 5.3^b per day

Turning now to a further record.
Query: What value of Mean number of D. v. virgifera per day (±standard deviation) has been recorded for this entry: C=CCc1ccc(O)c(OC)c1
Response: 0.3 ± 0.5^a per day
